system: UniProtKB W7KNE8
Sequence (W7KNE8 entry or part of it): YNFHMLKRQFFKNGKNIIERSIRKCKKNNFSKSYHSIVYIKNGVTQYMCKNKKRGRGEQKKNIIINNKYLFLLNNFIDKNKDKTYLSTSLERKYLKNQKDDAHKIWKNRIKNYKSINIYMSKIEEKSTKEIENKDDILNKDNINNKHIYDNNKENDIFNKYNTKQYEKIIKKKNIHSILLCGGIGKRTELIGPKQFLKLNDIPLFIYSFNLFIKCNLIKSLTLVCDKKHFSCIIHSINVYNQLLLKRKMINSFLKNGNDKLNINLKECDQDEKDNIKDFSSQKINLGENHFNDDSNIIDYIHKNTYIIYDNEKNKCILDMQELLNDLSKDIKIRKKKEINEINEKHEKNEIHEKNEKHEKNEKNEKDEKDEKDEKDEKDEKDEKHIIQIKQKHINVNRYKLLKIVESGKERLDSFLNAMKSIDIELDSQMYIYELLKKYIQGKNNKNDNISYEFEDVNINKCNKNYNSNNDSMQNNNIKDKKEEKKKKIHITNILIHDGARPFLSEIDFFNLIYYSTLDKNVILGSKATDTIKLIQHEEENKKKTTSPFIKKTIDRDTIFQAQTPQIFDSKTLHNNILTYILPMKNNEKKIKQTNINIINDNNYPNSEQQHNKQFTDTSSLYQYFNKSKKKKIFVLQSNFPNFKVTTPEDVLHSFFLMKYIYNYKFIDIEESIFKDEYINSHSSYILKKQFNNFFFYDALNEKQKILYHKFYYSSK

{"columns": ["compound", "system", "IC50 (µM)"],
 "data": [
  ["O=C(Nc1cc(S(=O)(=O)N2CCCC2)ccc1O)c1cccc(Oc2ccccc2)c1 [Compound 1]", "UniProtKB W7KNE8", 15]
]}

* * *

System: P. falciparum NF54 strain
assay.details: [3H]-hypoxanthine incorporation assay, asexual blood stage
Format: cell-based, Plasmodium falciparum
test.settings: Plasmodium falciparum, NF54, asexual blood stage; mean ± s.d.; read-out: PfNF54 IC50 ± s.d.
pIC50: −log10 of the molar value.
pIC50 of 7 or higher: Fulfilled. Under 7: Not fulfilled.

{"columns": ["compound.structure.string", "assigned.label"],
 "data": [
  ["COc1ccc(S(=O)(=O)N2CCCC2)cc1N(C)C(=O)c1cccc(Oc2ccccc2)c1", "Not fulfilled"],
  ["O=C(Nc1cc(S(=O)(=O)N2CCCC2)ccc1O)c1cccc(Oc2cccc(Cl)n2)c1", "Not fulfilled"],
  ["Oc1ccc(CN2CCOCC2)cc1NCc1cccc(Oc2cc(C(F)(F)F)ccn2)c1", "Not fulfilled"],
  ["CCCCNS(=O)(=O)c1ccc(O)c(NC(=O)c2cccc(Oc3ccccc3)c2)c1", "Not fulfilled"],
  ["CC(C)(C)c1ccc(O)c(NC(=O)c2cccc(Oc3cc(C(F)(F)F)ccn3)c2)c1", "Fulfilled"],
  ["O=C(Nc1cc(S(=O)(=O)NCc2ccccc2)ccc1O)c1cccc(Oc2ccccc2)c1", "Not fulfilled"],
  ["O=C(Nc1cc(CN2CCOCC2)ccc1F)c1cccc(Oc2cc(C(F)(F)F)ccn2)c1", "Not fulfilled"],
  ["CCN(CC)Cc1ccc(O)c(NC(=O)c2cccc(Oc3cc(C(F)(F)F)ccn3)c2)c1", "Fulfilled"],
  ["O=C(Nc1cc(S(=O)(=O)N2CCCC2)ccc1O)c1cccc(Oc2cccc(F)c2)c1", "Not fulfilled"],
  ["CCS(=O)(=O)c1ccc(O)c(NC(=O)c2cccc(Oc3ccccc3)c2)c1", "Not fulfilled"],
  ["O=C(Nc1cc(S(=O)(=O)N2CCCC2)ccc1O)c1cccc(Oc2ccccc2)c1", "Not fulfilled"],
  ["Cc1ccc(C(C)C)cc1Oc1cccc(C(=O)Nc2cc(S(=O)(=O)N3CCCC3)ccc2O)c1", "Not fulfilled"],
  ["CCN(CC)CCCNCc1ccc(O)c(NC(=O)c2cccc(Oc3cc(C(F)(F)F)ccn3)c2)c1", "Fulfilled"],
  ["O=C(Nc1cc(S(=O)(=O)N2CCCC2)ccc1O)c1cccc(Oc2ccccn2)c1", "Not fulfilled"],
  ["CN(C(=O)c1cccc(Oc2ccccc2)c1)c1cc(S(=O)(=O)N2CCCC2)ccc1O", "Not fulfilled"],
  ["O=C(Nc1cc(S(=O)(=O)N2CCCC2)ccc1O)c1cccc(Oc2ccc(Cl)c(C(F)(F)F)c2)c1", "Not fulfilled"],
  ["CC(C)c1ccc(O)c(NC(=O)c2cccc(Oc3cc(C(F)(F)F)ccn3)c2)c1", "Fulfilled"],
  ["CC1(C)CCN(S(=O)(=O)c2ccc(O)c(NC(=O)c3cccc(Oc4ccccc4)c3)c2)C1", "Not fulfilled"],
  ["O=C(Nc1cc(S(=O)(=O)NCC2CCCCC2)ccc1O)c1cccc(Oc2ccccc2)c1", "Not fulfilled"],
  ["O=C(Nc1cc(S(=O)(=O)N2CCCC2)ccc1O)c1cccc(Oc2cccc(C(F)(F)F)n2)c1", "Not fulfilled"],
  ["O=C(Nc1cc(CN2CCOCC2)ccc1O)c1cccc(Oc2cc(C(F)(F)F)ccn2)c1", "Fulfilled"],
  ["COc1ccc(S(=O)(=O)N2CCCC2)cc1NC(=O)c1cccc(Oc2ccccc2)c1", "Not fulfilled"],
  ["O=C(Nc1cccc(S(=O)(=O)N2CCCC2)c1)c1cccc(Oc2ccccc2)c1", "Not fulfilled"],
  ["CN(Cc1ccc(O)c(NC(=O)c2cccc(Oc3cc(C(F)(F)F)ccn3)c2)c1)C1CCCCC1", "Fulfilled"],
  ["O=C(Nc1cc(S(=O)(=O)N2CCCC2)ccc1O)c1ccc(Oc2ccccc2)cc1", "Not fulfilled"],
  ["O=C(Nc1cc(CN2CCOCC2)ccn1)c1cccc(Oc2cc(C(F)(F)F)ccn2)c1", "Not fulfilled"],
  ["CN1CCN(Cc2ccc(O)c(NC(=O)c3cccc(Oc4cc(C(F)(F)F)ccn4)c3)c2)CC1", "Fulfilled"],
  ["NS(=O)(=O)c1ccc(O)c(NC(=O)c2cccc(Oc3ccccc3)c2)c1", "Not fulfilled"],
  ["CC1CCN(S(=O)(=O)c2ccc(O)c(NC(=O)c3cccc(Oc4ccccc4)c3)c2)CC1", "Not fulfilled"]
]}

* * *

Test system: Dd2 DDD107458 (Dd2 + pfeEF2)
assay.details: [3H]-hypoxanthine incorporation assay
Assay type: cell-based, Plasmodium falciparum
test.settings: Plasmodium falciparum, DD2, 72 h
Below, each entry is listed alongside its reported IC50.

{"columns": ["compound", "system", "IC50"],
 "data": [
  ["C[C@H]1[C@H](OC(=O)CCC(=O)O)O[C@@H]2O[C@@]3(C)CC[C@H]4[C@H](C)CC[C@@H]1[C@@]24OO3 [Artesunate, artesunate, reference compound]", "Dd2 DDD107458 (Dd2 + pfeEF2)", "0.2 nM"],
  ["CN1CCN(Cc2ccc(O)c(NC(=O)c3cccc(Oc4cc(C(F)(F)F)ccn4)c3)c2)CC1", "Dd2 DDD107458 (Dd2 + pfeEF2)", "5.6 nM"]
]}

* * *

Test system: Dd2b2^pfmdr1 G182S
Assay type: cell-based, Plasmodium falciparum
test.settings: Dd2b2^pfmdr1 G182S vs Dd2b2^WT
Procedure: ^[a] 72-h [^3H] hypoxanthhine incorporation assay; Data is expressed as mean±s.d. The assay was performed in three independent biological experiments, each in biological duplicates P. falciparum asexual blood stage parasites were cultured in human red blood cells (RBC, Blutspende SRK, Zurich) at a hematocrit of 5% in RPMI 1640 medium. […]
result.type: IC50 fold shift relative to parental clone

{"columns": ["compound", "observed.result"],
 "data": [
  ["CCN(CC)Cc1cc(Nc2ccnc3cc(Cl)ccc23)ccc1O [Amodiaquine, amodiaquine, reference compound]", 1.1],
  ["CCN(CC)Cc1ccc(O)c(NC(=O)c2cccc(Oc3cc(C(F)(F)F)ccn3)c2)c1", 10.6],
  ["CCCCN(CCCC)CC(O)c1cc(Cl)cc2c1-c1ccc(Cl)cc1/C2=C/c1ccc(Cl)cc1 (centres unmarked) [Lumefantrine, lumefantrine, reference compound]", 0.4],
  ["CN1CCN(Cc2ccc(O)c(NC(=O)c3cccc(Oc4cc(C(F)(F)F)ccn4)c3)c2)CC1", 35.7],
  ["OC(c1cc(C(F)(F)F)nc2c(C(F)(F)F)cccc12)C1CCCCN1 (centres unmarked) [Mefloquine, mefloquine, reference compound]", 0.3]
]}

* * *

assay.details: Metabolic stability in liver S9 fractions
Format: in vitro ADME
test.settings: pooled mouse liver S9 fraction; 1 μM compound, 1 mg/mL pooled mouse liver S9, 37 °C; read-out: t1/2 Mouse Liver S9
result.type: half-life at 1 µM (min)

{"columns": ["compound.structure.string", "units.label", "observed.result"],
 "data": [
  ["O=C(Nc1cc(CN2CCOCC2)ccc1O)c1cccc(Oc2cc(C(F)(F)F)ccn2)c1", "min", 28.1],
  ["CC(C)(C)c1ccc(O)c(NC(=O)c2cccc(Oc3cc(C(F)(F)F)ccn3)c2)c1", "min", 5.4],
  ["O=C(Nc1cc(CN2CCOCC2)cc(F)c1O)c1cccc(Oc2cc(C(F)(F)F)ccn2)c1", "min", 18.4],
  ["O=C(Nc1cc(CN2CCOCC2)cc(Cl)c1O)c1cccc(Oc2cc(C(F)(F)F)ccn2)c1", "min", 49.9],
  ["CN1CCN(Cc2ccc(O)c(NC(=O)c3cccc(Oc4cc(C(F)(F)F)ccn4)c3)c2)CC1", "min", 42.7]
]}

* * *

Test system: Dd2b2^31-R3.2
assay.details: [3H]-hypoxanthine incorporation assay
Type: cell-based, Plasmodium falciparum
test.settings: Plasmodium falciparum, read-out: mean IC50 value ± s.d.
pIC50: −log10 of the molar value.
result.type: pIC50

{"columns": ["compound.structure.string", "result.type", "observed.result"],
 "data": [
  ["CN1CCN(Cc2ccc(O)c(NC(=O)c3cccc(Oc4cc(C(F)(F)F)ccn4)c3)c2)CC1", "pIC50", 6.58]
]}

* * *

assay.details: Cytotoxicity assay (MTT)
Type: cell-based, human
test.settings: human, HepG2 cells; HepG2, 48 h, MTT; mean ± s.d.
result.type: CC50 at 48 h

{"columns": ["compound", "result.type", "observed.result"],
 "data": [
  ["CN1CCN(Cc2ccc(O)c(NC(=O)c3cccc(Oc4cc(C(F)(F)F)ccn4)c3)c2)CC1 [Compound 31]", "CC50 at 48 h", "37 µM"]
]}

* * *

System: P. falciparum NF54 strain
assay.details: [3H]-hypoxanthine incorporation assay, asexual blood stage
Format: cell-based, Plasmodium falciparum
test.settings: Plasmodium falciparum, NF54, asexual blood stage; mean ± s.d.; read-out: PfNF54 IC50 ± s.d.
Method: P. falciparum asexual blood stage parasites were cultured in human red blood cells (RBC, Blutspende SRK, Zurich) at a hematocrit of 5% in RPMI 1640 medium. […] Parasites were harvested on a glass-fiber filter with a Microbeta FilterMate cell harvester (Perkin Elmer, Waltham, USA) and radioactivity was counted using a MicroBeta2 liquid scintillation counter (Perkin Elmer, Waltham, US). […]

{"columns": ["compound.structure.string", "IC50"],
 "data": [
  ["O=C(Nc1cc(CN2CCOCC2)cc(Cl)c1O)c1cccc(Oc2cc(C(F)(F)F)ccn2)c1", "0.063 µM"],
  ["O=C(Nc1cc(S(=O)(=O)N2CCCC2)ccc1O)c1cccc(Oc2cc(C(F)(F)F)ccn2)c1", "0.069 µM"],
  ["O=C(Nc1cc(-n2cnnc2)ccc1O)c1cccc(Oc2cc(C(F)(F)F)ccn2)c1", "0.158 µM"]
]}
